# Run Description: Quantitative High-Throughput drug screen in 47 multiple myeloma cell lines against the NCATS MIPE library collection: LP1_DSMZ cell viability assay (AID 1918982); also: nearly all actives have a fitted effect of over 35% in size
# Condition Notes: LP1 myeloma viability, CellTiter-Glo ATP luminescence, 48 h; series mostly up to 45.8 µM
Records with an inconclusive call do not appear. Calls of active or inactive are those of the source. Calls follow the shape of the dose curve; as a rule, active = well fitted cell-killing curve with a large enough effect; inconclusive = small, poorly fitted or top-dose-only effect, or effect the other way; inactive = no such curve, though single readings can be large or run the other way.
A correct response names exactly one class from active, inactive

Prompt: Please indicate how the test categorized CC(=O)OCCN1C(=O)c2c(C)nc3ccc(S(=O)(=O)N4CCOCC4)cc3c2C1=O .
Completion: inactive

* * *

# Tested on: W2
# Run Description: qHTS profiling for inhibitors of Plasmodium falciparum proliferation (AID 504749); also: nearly all actives have a fitted effect of over 60% in size; also: potency is read from the fitted curve at half-maximal effect
# Condition Notes: P. falciparum in erythrocytes, SYBR Green DNA, 72 h; series mostly up to 28.7 µM
# Procedure: NIH National Institute of Allergy and Infectious Diseases [NIAID] NIH Chemical Genomics Center [NCGC] […] Because mature erythrocytes lack DNA, only Plasmodium-derived DNA is detected. NCGC Assay Protocol Summary: The SYBR Green viability assay was adapted from a method described previously (Plouffe et al., 2008). […] The following morning, fluorescence intensity at 485(14) nm excitation and 535(25) nm emission wavelengths was measured on an EnVision (Perkin Elmer) plate reader. […]
Inconclusive results are not listed. Active and inactive are the calls of the source. Calls come from the whole dose curve; as a rule, active = well fitted inhibition curve with a large enough effect; inconclusive = small, poorly fitted or top-dose-only effect; inactive = flat fitted curve, though single readings scatter.
Measure Name: Potency

The examples below pair each entry with its known result.
CC(C)(C)NC(=O)[C@H]1CN(Cc2cccnc2)CCN1C[C@@H](O)C[C@@H](Cc1ccccc1)C(=O)N[C@H]1c2ccccc2C[C@H]1O: 6.01 µM (active)
CN1c2cc(O)c(N=NC(N)=O)cc2CC1S(=O)(=O)O (stereo not drawn): inactive
Nc1ccc(S(=O)(=O)Nc2ncccn2)cc1: inactive
COc1c(N2C[C@@H]3CCCN[C@H]3C2)c(F)cc2c(=O)c(C(=O)O)cn(C3CC3)c12: inactive
O=c1[nH]c(=O)n(C2CCCO2)cc1F (stereo not drawn): inactive
CC1(C)O[C@@H]2C[C@@H]3[C@H]4C[C@@H](F)C5=CC(=O)C=C[C@]5(C)[C@@]4(F)[C@@H](O)C[C@]3(C)[C@]2(C(=O)CO)O1: inactive

List Potency for every entry below, keeping the order given.
1. CCC1=C[C@@H]2CN(C1)Cc1c([nH]c3ccccc13)[C@@](C(=O)OC)(c1cc3c(cc1OC)N(C)[C@@H]1[C@@](O)(C(=O)OC)[C@H](OC(C)=O)[C@]4(CC)C=CCN5CC[C@]31[C@@H]54)C2
2. Nc1ccn([C@@H]2CS[C@H](CO)O2)c(=O)n1

Completion:
1. 0.19 µM (active)
2. inactive

* * *

# Run Description: qHTS profiling of the MIPE4 collection as inhibitors of Plasmodium falciparum (3D7) proliferation (AID 743344);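 also: scaled between DMSO vehicle wells and 0.29 µM artemisinin as full inhibition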
# Condition Notes: P. falciparum 3D7 in erythrocytes, SYBR Green DNA fluorescence, 72 h; at 28.5 µM (top of the series) unless noted
label 1 means recorded parasite growth, % of DMSO control is 20% or above; label 0 means it is below 20%.

# example entries with known answers
O=C(c1ccc(Nc2nccc(-c3cc4ccccc4s3)n2)cc1)N1CCC(N2CCCC2)CC1: label 0
Nc1nc(NCCNc2ncc(-n3ccnc3)c(-c3ccc(Cl)cc3Cl)n2)ccc1[N+](=O)[O-]: label 0
C1Cc2[nH]nc(-c3nn[nH]n3)c2C1: label 1
CC(C)[C@H](C(=O)Nc1ccc(C(=O)NO)cc1)c1ccccc1: label 0
COc1ccc(F)c(F)c1C(=O)c1cnc(NC2CCN(S(C)(=O)=O)CC2)nc1N: label 1

Prompt: // inclusive: parasite growth, % of DMSO control at least 20%? input: O=C(NCCCNc1nc(Nc2cccc(NC(=O)N3CCCC3)c2)ncc1I)c1cccs1
Completion: label 0

Prompt: Determine whether measured parasite growth, % of DMSO control meets or exceeds 20% for O=C(O)c1ccc2cc(-c3ccc(O)c(C45CC6CC(CC(C6)C4)C5)c3)ccc2c1
Completion: label 0

Prompt: Determine whether measured parasite growth, % of DMSO control meets or exceeds 20% for O=C(Nc1cn[nH]c1-c1nc2ccc(CN3CCOCC3)cc2[nH]1)NC1CC1
Completion: label 0

Prompt: Check this molecule for parasite growth, % of DMSO control at or above 20%: CC(C)c1nn(-c2c(Cl)cccc2Cl)c2nc(Cc3ccc(OCCO)cc3)[nH]c(=O)c12
Completion: label 1

Prompt: Please tell me: is the molecule COC(=O)Nc1ccc(-c2nc(N3CCOCC3)c3cnn(C4CCN(Cc5cccnc5)CC4)c3n2)cc1 at or over 20% in terms of parasite growth, % of DMSO control?
Completion: label 0

Prompt: Given the entry CCN1CCN(CC(=O)Nc2ccc(-c3cccc4c(=O)cc(N5CCOCC5)oc34)c3sc4ccccc4c23)CC1 , answer whether its parasite growth, % of DMSO control meets or surpasses 20%.
Completion: label 0

Prompt: Could you please find out whether CN(C)CC=CC(=O)Nc1cc2c(Nc3ccc(F)c(Cl)c3)ncnc2cc1O[C@H]1CCOC1 has parasite growth, % of DMSO control that meets 20% or exceeds it?
Completion: label 0

Prompt: Evaluate CCN(CC)CCCCNc1ncc2cc(-c3cc(OC)cc(OC)c3)c(NC(=O)NC(C)(C)C)nc2n1 : parasite growth, % of DMSO control at minimum 20%?
Completion: label 0

Prompt: Tell me whether parasite growth, % of DMSO control is at least 20% here: Cc1cc(Nc2cc(CN3CCOCC3)c3nc(C)c(Cc4ccc(Cl)cc4F)n3n2)n[nH]1
Completion: label 0

Prompt: Determine whether measured parasite growth, % of DMSO control meets or exceeds 20% for Cc1c(Cn2c(C)nc3c(C(=O)O)cc(N4CCOCC4)cc32)cccc1C(F)(F)F
Completion: label 1

Prompt: I'd appreciate it if you could say whether Cc1cc(N2CCOCC2)cc2[nH]c(-c3c(NC[C@@H](O)c4cccc(Cl)c4)cc[nH]c3=O)nc12 has parasite growth, % of DMSO control at least equal to 20%.
Completion: label 0

Prompt: Is reported parasite growth, % of DMSO control greater than or equal to 20% here: Cc1nc2ccc(CN(C)c3ccc(C(=O)N[C@@H](CCC(=O)O)C(=O)O)s3)cc2c(=O)[nH]1
Completion: label 1

Prompt: API: above_or_equal(metric=parasite growth, % of DMSO control, cutoff=20%) for item O=C(O)CO.[NH2-].[NH2-].[Pt+2]
Completion: label 1

Prompt: Please tell me: is the molecule CCN1CCN(Cc2ccc(-c3cc4c(N[C@H](C)c5ccccc5)ncnc4[nH]3)cc2)CC1 at or over 20% in terms of parasite growth, % of DMSO control?
Completion: label 0

Prompt: Is parasite growth, % of DMSO control at least 20%? Consider N#Cc1c(O)c2c(-c3ccc(-c4ccccc4O)cc3)csc2[nH]c1=O
Completion: label 1

Prompt: Check the entry CN1CC[C@@H](c2c(O)cc(O)c3c(=O)cc(-c4ccccc4Cl)oc23)[C@@H](O)C1 : does parasite growth, % of DMSO control equal or exceed 20%?
Completion: label 0

Prompt: Decide: parasite growth, % of DMSO control of Cc1cn2cc(C(=O)N(C)CCO)cc(N[C@@H]3CCOc4cccc(C)c43)c2n1 >= 20%?
Completion: label 1

* * *

# Run Description: Tertiary RLuc qRT-PCR qHTS assay for Zika virus inhibitors (AID 1347169); also: nearly all actives have a fitted effect of over 55% in size
# Condition Notes: infected Vero cells, reporter luminescence, 48-72 h; series mostly up to 89.2 µM
Inconclusive results are not listed. Calls of active or inactive are those of the source. Calls come from the whole dose curve; as a rule, active = well fitted inhibition curve with a large enough effect; inconclusive = small, poorly fitted or top-dose-only effect; inactive = no such curve, though single readings can be large or run the other way.
Pick one: t = active, f = inactive

Would you please look over these solved cases?
CCc1c2c(nc3ccc(O)cc13)-c1cc3c(c(=O)n1C2)COC(=O)[C@]3(O)CC: t
O=C(Nc1cc(C(F)(F)F)cc(C(F)(F)F)c1)c1cc(Cl)ccc1O: t
CC(C)c1ccccc1Cc1cc(C(=O)Nc2ccc(S(=O)(=O)c3ccccc3C(C)(C)C)cc2)c(O)c(O)c1O: f

Then there is this compound:
Prompt: I would be grateful if you could indicate the recorded call for N#Cc1c(O)c2c(-c3ccc(-c4ccccc4O)cc3)csc2[nH]c1=O .
Completion: f

* * *

# Run Description: qHTS of pediatric cancer cell lines to identify multiple opportunities for drug repurposing: Confirmatory screen for RD cells (AID 1347124);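 also: cells exposed to compound for 48 h before viability readout; nearly all actives have a fitted effect of over 65% in size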
# Condition Notes: RD rhabdomyosarcoma cell viability; series mostly up to 45.9 µM
Results filed as inconclusive are left out. Activity calls are given as the source filed them. The call rests on the fitted dose curve; in most records, active means well fitted cell-killing curve with a large enough effect; inconclusive means small, poorly fitted or top-dose-only effect, or effect the other way; inactive means no such curve, though single readings can be large or run the other way.
Your response should consist of one outcome taken from active, inactive

CC(C)[C@H](C(=O)Nc1ccc(C(=O)NO)cc1)c1ccccc1: active
COc1ccc(F)c(F)c1C(=O)c1cnc(NC2CCN(S(C)(=O)=O)CC2)nc1N: active
COc1cccc(-c2ccc(NC(=O)C3=C(C(=O)O)CCC3)c(F)c2)c1: active
CC[C@@H]1C(=O)N(C)c2cnc(Nc3ccc(C(=O)NC4CCC(N5CCN(CC6CC6)CC5)CC4)cc3OC)nc2N1C(C)C (stereo not given in full): inactive

Now consider a different compound.
Prompt: Assay result, entry CC(C)(C)OC(=O)Nc1ccc(-c2cc(C(=O)NCCCCCCC(=O)NO)no2)cc1 — outcome?
Completion: active
